// provenance: patent US9314026B2

Please provide measured efficacy for the entries that follow.
tested on: Septoria tritici; test: Septoria tritici-test (wheat)/preventive; format: in vivo; conditions: 500 ppm of active ingredient, preventive, evaluated 21 days after inoculation
Numbers only; they are read as %.

efficacy for `CCC(=O)N(C(C)=O)c1cc(-c2c(-c3ccc(F)cc3)nn3c2CCC3)ccn1` is 86

Sure, the documented efficacy for CCC(=O)N(C(=O)C(C)C)c1cc(-c2c(-c3ccc(F)cc3)nn3c2CCOC3C)ccn1 (stereo not drawn) is 100

Record summary for CCC(=O)N(C(C)=O)c1cc(-c2c(-c3ccc(F)cc3)nn3c2CCC3C)ccn1 (stereo not drawn) : reported efficacy = 86

----------
system: Phytophthora infestans; assay: whole plant or invertebrate; format: in vivo; conditions: 72 h, read-out: efficacy
Exercise: for every item that follows, state its recorded pest or weed control at 100 ppm.
A number alone suffices; assume %.

Please fill in: pest or weed control at 100 ppm reported for `CCC(=O)N(C(=O)C1CC1)c1cc(-c2c(-c3ccc(F)cc3)nn3c2CCC3)ccn1` = 79

Documented pest or weed control at 100 ppm of `CCC(=O)N(C(=O)CC)c1cc(-c2c(-c3ccc(F)cc3)nn3c2CCC3)ccn1` : 95

In plain terms, CCC(=O)N(C(C)=O)c1cc(-c2c(-c3ccc(F)cc3)nn3c2CCC3C)ccn1 (stereo not shown) has a documented pest or weed control at 100 ppm of 91

pest or weed control at 100 ppm recorded for this compound, `CC(=O)N(C(C)=O)c1cc(-c2c(-c3ccccc3)nn3c2CCCC3)ccn1` , is 95
